Origin of values: ChEMBL document CHEMBL5543150

biological target: UniProt:Q8N884; assay: Inhibition of cGAS in dsDNA activated human THP1-Dual cells preincubated for 1 hr followed by cGAMP addition and measured after 24 hrs by luminescence based QUANTI-Luc assay
Measured Attribute: pIC50
Answers are plain numbers, as −log10 of the molar value.

Hi there! I need pIC50 for each item below, if you can.
1. Nc1cc(-c2cc(Cl)c(Cl)c3[nH]c4c(c23)CC2(CC4)CCN(C(=O)CO)C2)ccn1 (stereo unspecified)
2. O=C(CO)N1CCC2(CCc3[nH]c4c(Cl)c(Cl)cc(-c5cnc(C(F)(F)F)nc5)c4c3C2)C1 (stereo unspecified)
3. Nc1ccc(-c2cc(Cl)c(Cl)c3[nH]c4c(c23)CC2(CC4)CCN(C(=O)CO)C2)cn1 (stereo unspecified)
4. Cn1ccc(-c2cc(Cl)c(Cl)c3[nH]c4c(c23)CC2(CC4)CCN(C(=O)CO)C2)n1 (stereo unspecified)

5.19
5.12
5.09
5.12

Hi there! I need pIC50 for each item below, if you can.
1. O=C(CO)N1CCC2(CCc3[nH]c4c(Cl)c(Cl)cc(-c5cnn(C(F)F)c5)c4c3C2)C1 (stereo unspecified)
2. O=C(CO)N1CCC2(CCc3[nH]c4c(Cl)c(Cl)cc(-c5ccnc(C(F)(F)F)c5)c4c3C2)C1 (stereo unspecified)

5.24
5.35

----------
target: Cyclic GMP-AMP synthase (Homo sapiens, UniProt Q8N884); test: Inhibition of cGAS in human THP1-Dual cells preincubated for 1 hr followed by cGAMP addition and measured after 24 hrs by luminescence based QUANTI-Luc assay
Sequence (Q8N884 whole entry): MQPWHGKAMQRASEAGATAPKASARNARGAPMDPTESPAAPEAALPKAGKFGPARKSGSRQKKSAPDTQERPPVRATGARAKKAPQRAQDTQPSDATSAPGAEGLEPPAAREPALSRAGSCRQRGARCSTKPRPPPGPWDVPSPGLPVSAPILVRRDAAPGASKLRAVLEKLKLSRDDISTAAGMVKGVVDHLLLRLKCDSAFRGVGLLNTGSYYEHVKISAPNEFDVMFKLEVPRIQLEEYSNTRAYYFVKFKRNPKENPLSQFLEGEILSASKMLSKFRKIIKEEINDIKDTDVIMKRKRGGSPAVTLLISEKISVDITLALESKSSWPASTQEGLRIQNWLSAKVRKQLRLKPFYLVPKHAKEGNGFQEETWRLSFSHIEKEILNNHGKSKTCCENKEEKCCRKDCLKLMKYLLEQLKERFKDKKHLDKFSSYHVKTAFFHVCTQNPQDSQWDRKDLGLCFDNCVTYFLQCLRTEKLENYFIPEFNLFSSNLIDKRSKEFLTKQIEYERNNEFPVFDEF
Measured Attribute: IC50 (µM)
Answers are plain numbers, in µM.

Molecule | Measured Attribute | Observed Measurement
C[C@H](O)C(=O)N1CCC2(CCc3[nH]c4c(Cl)c(Cl)cc(-c5ccnc(C(F)(F)F)c5)c4c3C2)C1 (some centres undefined) | IC50 | 38.8
Nc1ccc(-c2cc(Cl)c(Cl)c3[nH]c4c(c23)CC2(CC4)CCN(C(=O)CO)C2)cn1 (centres undefined) | IC50 | 8.04
Cn1ccc(-c2cc(Cl)c(Cl)c3[nH]c4c(c23)CC2(CC4)CCN(C(=O)CO)CC2)n1 | IC50 | 12.9
CS(=O)(=O)CC(=O)N1CCC2(CCc3[nH]c4c(Cl)c(Cl)cc(-c5ccnc(C(F)(F)F)c5)c4c3C2)C1 (centres undefined) | IC50 | 9.48
Cn1ccc(-c2cc(Cl)c(Cl)c3[nH]c4c(c23)CN(C(=O)CO)CC4)n1 | IC50 | 4.82
O=C(CO)N1CCC2(CCc3[nH]c4c(Cl)c(Cl)cc(-c5cn[nH]c5)c4c3C2)C1 (centres undefined) | IC50 | 5.86

Hi there! I need IC50 for each item below, if you can.
1. C[C@H](N)C(=O)N1CCC2(CCc3[nH]c4c(Cl)c(Cl)cc(-c5ccnc(C(F)(F)F)c5)c4c3C2)C1 (some centres undefined)
2. O=C(CO)N1CCC2(CCc3[nH]c4c(Cl)c(Cl)cc(-c5cnn(C(F)F)c5)c4c3C2)C1 (centres undefined)

[4.3, 5.8]

----------
molecular target: Cyclic GMP-AMP synthase (Homo sapiens, UniProt Q8N884); test: Inhibition of cGAS in human THP1-Dual cells preincubated for 1 hr followed by cGAMP addition and measured after 24 hrs by luminescence based QUANTI-Luc assay
Measured Attribute: pIC50
One number for each entry, as −log10 of the molar value.

Here's what some known entries look like.
Molecule | Target Or System | pIC50
C[C@H](O)[C@@H](N)C(=O)N1CCC2(CCc3[nH]c4c(Cl)c(Cl)cc(-c5ccnc(C(F)(F)F)c5)c4c3C2)C1 (stereo partly specified) | Cyclic GMP-AMP synthase (Homo sapiens, UniProt Q8N884) | 4.96
O=C(CO)N1CCC2(CCc3[nH]c4c(Cl)c(Cl)cc(-c5cnn(C6CCNCC6)c5)c4c3C2)C1 (stereo unspecified) | Cyclic GMP-AMP synthase (Homo sapiens, UniProt Q8N884) | 4.89
Cn1ccc(-c2cc(Cl)c(Cl)c3[nH]c4c(c23)CC2(CC4)CCN(C(=O)CO)C2)n1 (stereo unspecified) | Cyclic GMP-AMP synthase (Homo sapiens, UniProt Q8N884) | 5.12
CC(C)=C(C#N)C(=O)N1CCC2(CCc3[nH]c4c(Cl)c(Cl)cc(-c5ccnc(C(F)(F)F)c5)c4c3C2)C1 (stereo unspecified) | Cyclic GMP-AMP synthase (Homo sapiens, UniProt Q8N884) | 5.07
N#Cc1ncc(-c2cc(Cl)c(Cl)c3[nH]c4c(c23)CC2(CC4)CCN(C(=O)CO)C2)cc1F (stereo unspecified) | Cyclic GMP-AMP synthase (Homo sapiens, UniProt Q8N884) | 5.11

Now, please, on to the next molecule.
Checklist item: pIC50 tested on Cyclic GMP-AMP synthase (Homo sapiens, UniProt Q8N884), entry O=C(CO)N1CCC2(CCc3[nH]c4c(Cl)c(Cl)cc(-c5ccc(C(F)(F)F)nc5)c4c3C2)C1 (stereo unspecified) , value?
5.06
